From: patent US4376785A

# Lookup of reported LD50 keyed by entry
system: CSMA strain housefly (Musca domestica); assay: Topical application to housefly adults, Test example 8; assay type: in vivo; conditions: topical to ventral thorax, 0.5 μl/adult, female adults, 24 hours
Give a bare numeral; the unit μg/adult is implied.

Consider the reported LD50 for these compounds:
CC1(C)C(C(=O)OC(C#N)c2cccc(Oc3ccc(Br)cc3)c2)C1C(Br)C(Cl)(Cl)Br (stereo not drawn) [(D), reference compound] = 0.063
CC1(C)C(C(=O)OC(C#N)c2ccc(F)c(Oc3ccc(Cl)cc3)c2)C1C(Br)C(Cl)(Cl)Br (stereo not drawn) = 0.033

# context switch: different compound, same LD50
LD50 reported for this compound CC1(C)[C@H](C(=O)OC(C#N)c2ccc(F)c(Oc3ccc(Cl)cc3)c2)[C@H]1C(Br)C(Cl)(Cl)Br (stereo partly drawn) [compound (9)] : 0.018

###

test system: CSMA strain housefly (Musca domestica); experiment: Topical application to housefly adults, Test example 8; format: in vivo; settings: topical to ventral thorax, 0.5 μl/adult, female adults, 24 hours
PROPERTY LABEL: LD50

Worked cases, LD50 given:
CC1(C)C(C(=O)OC(C#N)c2cccc(Oc3ccc(Cl)cc3)c2)C1C(Br)C(Cl)(Cl)Br (stereo not drawn) [(C), reference compound] = 0.062 μg/adult
CC1(C)[C@H](C(=O)OC(C#N)c2ccc(F)c(Oc3ccc(Cl)cc3)c2)[C@H]1C(Br)C(Cl)(Cl)Br (relative stereo) [compound (6)] = 0.031 μg/adult

Shifting focus to the compound that follows.
The compound CC1(C)[C@H](C(=O)OC(C#N)c2ccc(F)c(Oc3ccc(Cl)cc3)c2)[C@@H]1C(Br)C(Cl)(Cl)Br (stereo partly drawn) [compound (10)] on CSMA strain housefly (Musca domestica): LD50 was 0.030 μg/adult
